Cited source for all entries: patent US10099993B2

# assay.notes: In vivo PK in rats, p.o. administration
# Parameters: species or system rat
# cond: rat, po, 20 mg/kg, plasma
I'd appreciate it if you could supply Cmax values for the items below.
Response body: numeric value in nM, unit text excluded.

Task item: Which value of Cmax has been reported for COc1cc(C(=O)O)ccc1OCCCCOc1ccc(C(=O)CC(C)C)c(O)c1C in the records?
Reply: 2750

Task item: Now consider COc1ccc(C(=O)O)cc1OCCCCOc1ccc(C(=O)CC(C)C)c(O)c1C and answer again.
Reply: 1050

Task item: Thanks! And Cc1c(OCCCCOc2ccc(F)c(C(=O)O)c2)ccc(C(=O)CC(C)C)c1O ?
Reply: 12500

Task item: Next: Cc1c(OCCCCOc2ccc(C(=O)O)cc2)ccc(C(=O)CC(C)C)c1O
Reply: 2570

###

I'd be grateful if you could share measured Kp at 30 min for these entries.
# assay.notes: In vivo PK in rats, i.p. administration
# cond: rat, brain and plasma, ip, 10 mg/kg
I'd appreciate a reply containing only the number, no unit.

Task item: Need Kp at 30 min, item COc1cc(C(=O)O)ccc1OCCCCOc1ccc(C(=O)CC(C)C)c(O)c1C
Reply: 0.03

Task item: Do the same for Cc1c(OCCCCOc2ccc(C(=O)CC(C)(C)C)c(O)c2C)cccc1C(=O)O please
Reply: 0.03

###

# system.under.test: mGlu3 (Rattus norvegicus (Rat), UniProt P31422)
# Sequence (P31422 23-879): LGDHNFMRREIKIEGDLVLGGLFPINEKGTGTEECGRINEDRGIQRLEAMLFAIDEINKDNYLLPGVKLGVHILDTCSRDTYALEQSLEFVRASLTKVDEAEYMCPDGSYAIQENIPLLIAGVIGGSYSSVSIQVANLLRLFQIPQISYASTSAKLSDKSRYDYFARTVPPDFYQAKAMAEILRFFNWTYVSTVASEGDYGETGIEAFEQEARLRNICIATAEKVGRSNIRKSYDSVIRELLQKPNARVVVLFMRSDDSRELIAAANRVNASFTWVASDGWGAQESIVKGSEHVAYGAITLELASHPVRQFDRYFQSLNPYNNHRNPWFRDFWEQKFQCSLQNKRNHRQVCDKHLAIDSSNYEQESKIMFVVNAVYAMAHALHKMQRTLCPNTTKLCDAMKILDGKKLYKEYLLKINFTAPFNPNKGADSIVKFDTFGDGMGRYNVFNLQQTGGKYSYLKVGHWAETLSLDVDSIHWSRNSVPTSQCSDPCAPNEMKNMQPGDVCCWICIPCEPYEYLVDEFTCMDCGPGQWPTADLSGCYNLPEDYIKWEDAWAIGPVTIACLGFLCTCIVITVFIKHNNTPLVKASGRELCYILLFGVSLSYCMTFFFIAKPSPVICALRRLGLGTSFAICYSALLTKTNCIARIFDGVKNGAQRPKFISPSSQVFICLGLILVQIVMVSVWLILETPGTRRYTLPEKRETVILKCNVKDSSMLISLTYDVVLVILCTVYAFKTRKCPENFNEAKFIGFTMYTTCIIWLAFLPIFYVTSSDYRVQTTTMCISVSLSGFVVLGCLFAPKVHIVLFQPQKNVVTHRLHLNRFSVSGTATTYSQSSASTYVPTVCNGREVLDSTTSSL
# assay.notes: mGlu3 GIRK thallium flux assay
# cond: read-out: mGlu3 PAM EC50; PAM mode; test compound, then EC20 glutamate […] later in the presence of thallium; mean ± SEM
measured.property: EC50 (nM)
Respond numerically; units are nM and should not be typed.

Task item: I am curious: what EC50 value has been reported for COc1ccc(-c2noc(=S)[nH]2)cc1OCCCCOc1ccc(C(=O)CC(C)(C)C)c(O)c1C ?
Reply: 1150

Task item: Then this compound: Cc1c(OCc2cccc(-c3cccc(C(=O)O)c3)c2)ccc(C(=O)CC(C)(C)C)c1O
Reply: 343

Task item: Similarly, CCN(CC)C(=O)c1ccc(OC)c(OCCCCOc2ccc(C(=O)CC(C)(C)C)c(O)c2C)c1 ?
Reply: 497

Task item: Proceed to Cc1c(OCc2cccc(-c3cncc(C(=O)O)c3)c2)ccc(C(=O)CC(C)(C)C)c1O
Reply: 1010

Task item: Another compound to check: Cc1c(OCc2ccc(-c3cccc(C(=O)O)c3)o2)ccc(C(=O)CC(C)(C)C)c1O
Reply: 421

Task item: Also COc1ccc(C(=O)O)cc1-c1cccc(COc2ccc(C(=O)CC(C)(C)C)c(O)c2C)c1 ?
Reply: 324

Task item: Record: COc1ccc(C(=O)NS(=O)(=O)c2ccccc2)cc1OCCCCOc1ccc(C(=O)CC(C)(C)C)c(O)c1C
Reply: 1080

###

# system.under.test: mGlu3 (Rattus norvegicus (Rat), UniProt P31422)
# assay.notes: mGlu3 GIRK thallium flux assay
# cond: read-out: mGlu3 PAM EC50; PAM mode; test compound, then EC20 glutamate […] later in the presence of thallium; mean ± SEM
measured.property: EC50

Task item: Give its EC50 value. Item: Cc1c(OCc2cccc(COc3ccc(C(=O)O)cc3)c2)ccc(C(=O)CC2CCCC2)c1O
Reply: > 30 µM

Task item: Check Cc1c(OCCCCOc2ccccn2)ccc(C(=O)CC(C)C)c1O too.
Reply: > 30 µM

Task item: // same read-out, input: Cc1c(OCc2cccc(-c3cc(C(=O)O)ccc3F)c2)ccc(C(=O)CC(C)(C)C)c1O
Reply: 1.1 µM

Task item: // repeat for COc1cc(C(=O)NO)ccc1OCCCCOc1ccc(C(=O)CC(C)(C)C)c(O)c1C and report
Reply: 5.46 µM

###

# system.under.test: mGlu3 (Rattus norvegicus (Rat), UniProt P31422)
# assay.notes: mGlu3 GIRK thallium flux assay
# cond: read-out: mGlu3 PAM Max
Where Emax equals or exceeds 30%, the correct label is 1; where it does not, the label is -1.

Task item: I'd appreciate it if you could say whether COc1ccc(C(=O)N2CCOCC2)cc1OCCCCOc1ccc(C(=O)CC(C)(C)C)c(O)c1C has Emax at least equal to 30%.
Reply: 1

Task item: Also check Cc1c(OCc2cccc(-c3cccc(CC(=O)O)c3)c2)ccc(C(=O)CC(C)(C)C)c1O
Reply: 1

Task item: Same lookup for CCCc1c(OCCCCOc2ccc(C(=O)O)cc2OC)ccc(C(C)=O)c1O , please.
Reply: -1

Task item: Okay, and COc1ccc(-c2nsc(=O)[nH]2)cc1OCCCCOc1ccc(C(=O)CC(C)(C)C)c(O)c1C ?
Reply: 1

Task item: Request: Cc1c(OCc2cccc(-c3cccc(-c4noc(=O)[nH]4)c3)c2)ccc(C(=O)CC(C)(C)C)c1O
Reply: 1

Task item: Next up: Cc1c(OCc2cccc(-c3cccc(C(=O)O)c3)n2)ccc(C(=O)CC(C)(C)C)c1O
Reply: 1

Task item: Now consider CC(C)(C)CC(=O)c1ccc(OCc2cccc(-c3cccc(C(=O)O)c3)c2)c(I)c1O .
Reply: 1

Task item: Next entry: COc1ccc(B2OC(C)(C)C(C)(C)O2)cc1OCCCCOc1ccc(C(=O)CC(C)(C)C)c(O)c1C
Reply: -1

###

For each of the molecules below, state its Emax.
# system.under.test: mGlu2 (Rattus norvegicus (Rat), UniProt P31421)
# Sequence (P31421 19-872): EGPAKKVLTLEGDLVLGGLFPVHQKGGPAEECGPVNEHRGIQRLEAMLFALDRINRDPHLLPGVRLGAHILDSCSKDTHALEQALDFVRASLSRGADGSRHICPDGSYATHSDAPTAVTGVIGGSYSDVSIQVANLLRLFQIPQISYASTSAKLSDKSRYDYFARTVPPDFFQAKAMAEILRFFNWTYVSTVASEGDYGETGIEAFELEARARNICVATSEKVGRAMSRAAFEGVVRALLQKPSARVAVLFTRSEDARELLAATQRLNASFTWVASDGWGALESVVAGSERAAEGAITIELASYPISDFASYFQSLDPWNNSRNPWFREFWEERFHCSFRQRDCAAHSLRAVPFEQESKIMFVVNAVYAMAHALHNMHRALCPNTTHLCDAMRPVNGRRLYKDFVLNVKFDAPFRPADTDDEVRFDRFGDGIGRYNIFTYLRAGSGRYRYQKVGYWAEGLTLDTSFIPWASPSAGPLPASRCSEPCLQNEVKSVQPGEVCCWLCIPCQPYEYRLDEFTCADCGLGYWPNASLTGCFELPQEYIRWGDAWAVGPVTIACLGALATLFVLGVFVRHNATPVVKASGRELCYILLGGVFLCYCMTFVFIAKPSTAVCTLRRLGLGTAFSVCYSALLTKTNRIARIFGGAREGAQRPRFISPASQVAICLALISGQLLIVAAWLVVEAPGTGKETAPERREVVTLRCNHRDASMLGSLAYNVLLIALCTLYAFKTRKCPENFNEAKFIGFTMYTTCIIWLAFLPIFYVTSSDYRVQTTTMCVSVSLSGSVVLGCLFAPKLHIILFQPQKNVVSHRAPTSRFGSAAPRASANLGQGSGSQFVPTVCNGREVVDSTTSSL
# assay.notes: mGlu2 GIRK thallium flux assay
# cond: read-out: mGlu2 PAM Max
Numeric only. Scale: %

Task item: GET /values?readout=Emax&item= COc1ccc(C(=O)NC2CCCC2)cc1OCCCCOc1ccc(C(=O)CC(C)(C)C)c(O)c1C [compound 112]
Reply: 35

Task item: Lookup Cc1c(OCc2cccc(-c3cnc(C(=O)O)cn3)c2)ccc(C(=O)CC(C)(C)C)c1O [Compound 181]
Reply: 105

Task item: Another: COc1ccc(B(O)O)cc1OCCCCOc1ccc(C(=O)CC(C)(C)C)c(O)c1C [compound 95]
Reply: 27.5

Task item: Queued: COc1ccc(-c2cccc(COc3ccc(C(=O)CC(C)(C)C)c(O)c3C)c2)cc1C(=O)O [compound 140]
Reply: 86.1

Task item: Here is the next molecule: COc1ccc(C(=O)NCC(C)C)cc1OCCCCOc1ccc(C(=O)CC(C)(C)C)c(O)c1C [compound 110]
Reply: 48.4

Task item: Repeat with Cc1c(OCc2cccc(-c3ccccc3C(=O)O)c2)ccc(C(=O)CC(C)(C)C)c1O [compound 138]
Reply: 42.1

Task item: Now try CC(=O)c1ccc(OCc2cccc(-c3cccc(C(=O)O)c3)c2)c(C)c1O [compound 128] .
Reply: 57.9

Task item: Queued: Cc1c(OCc2cccc(-c3cccc(C(=O)O)c3)c2)ccc(C(=O)C(C)C)c1O [compound 131]
Reply: 83.2

###

# system.under.test: mGlu3 (Rattus norvegicus (Rat), UniProt P31422)
# assay.notes: mGlu3 GIRK thallium flux assay;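 also: kinetic fluorescence slope read shortly after thallium plus agonist addition, scaled between vehicle and maximal agonist control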
# cond: read-out: mGlu3 PAM Max
Give measured Emax for each item. Keep answers brief.
The number alone won't do; follow it with the unit.

Task item: Bench note: what Emax did COc1ccc(-c2noc(=O)[nH]2)cc1OCCCCOc1ccc(C(=O)CC(C)(C)C)c(O)c1C show?
Reply: 102%

Task item: Another molecule to look at: COc1cc(C(=O)NO)ccc1OCCCCOc1ccc(C(=O)CC(C)(C)C)c(O)c1C
Reply: 53.5%

Task item: What do we get for Cc1c(OCc2cccc(-c3cc(C(=O)O)cc([N+](=O)[O-])c3)c2)ccc(C(=O)CC(C)(C)C)c1O ?
Reply: 74.5%

Task item: Repeat for the following molecule: COc1ccc(C(=O)NC2CC2)cc1OCCCCOc1ccc(C(=O)CC(C)(C)C)c(O)c1C
Reply: 106%

Task item: Check CCCc1c(OCCCCOc2ccc(C(=O)O)cc2C)ccc(C(C)=O)c1O too.
Reply: 0.1%

Task item: Can you handle Cc1c(OCc2cccc(-c3cccc(C(=O)O)c3)c2)ccc(C(=O)C(C)C)c1O next?
Reply: 55%

Task item: Note, next up: COc1ccc(C(=O)NC2CCCC2)cc1OCCCCOc1ccc(C(=O)CC(C)(C)C)c(O)c1C
Reply: 40.3%

Task item: Another: Cc1c(OCc2cccc(-c3ccc(Cl)c(C(=O)O)c3)c2)ccc(C(=O)CC(C)(C)C)c1O
Reply: 70.9%

Task item: Quick one: COc1ccc(C(=O)NS(C)(=O)=O)cc1OCCCCOc1ccc(C(=O)CC(C)(C)C)c(O)c1C
Reply: 110%

Task item: Same read-out for COc1ccc(C(=O)N2CCNCC2)cc1OCCCCOc1ccc(C(=O)CC(C)(C)C)c(O)c1C ?
Reply: 49.7%

###

# system.under.test: mGlu2 (Rattus norvegicus (Rat), UniProt P31421)
# assay.notes: mGlu2 GIRK thallium flux assay
# cond: read-out: mGlu2 PAM Max
# strict inequality: Emax < 90% yields Criterion met, everything else yields Criterion not met

Task item: Criterion: Emax strictly below 90%. Is it met by COc1ccc(C(=O)N2CCOCC2)cc1OCCCCOc1ccc(C(=O)CC(C)(C)C)c(O)c1C [compound 101] ?
Reply: Criterion not met

Task item: Next record, please: Cc1c(OCc2cccc(-c3ccc(O)c(C(=O)O)c3)c2)ccc(C(=O)CC(C)(C)C)c1O [compound 144]
Reply: Criterion met

Task item: // same read-out, input: CCCc1c(OCCCCOc2ccc(C(=O)O)cc2OC)ccc(C(C)=O)c1O [Compound 190]
Reply: Criterion met

Task item: Now this one: CCCc1c(OCCCCOc2ccc(C(=O)O)cc2C)ccc(C(C)=O)c1O [Compound 191]
Reply: Criterion met

Task item: Subsequent entry: COc1ccc(C(=O)NS(=O)(=O)c2ccccc2)cc1OCCCCOc1ccc(C(=O)CC(C)(C)C)c(O)c1C [compound 113]
Reply: Criterion not met
